- study_system: T1, Human CD3eg linker (human)
- T1 construct: single-chain construct; also called recombinant human CD3
- T1 chain: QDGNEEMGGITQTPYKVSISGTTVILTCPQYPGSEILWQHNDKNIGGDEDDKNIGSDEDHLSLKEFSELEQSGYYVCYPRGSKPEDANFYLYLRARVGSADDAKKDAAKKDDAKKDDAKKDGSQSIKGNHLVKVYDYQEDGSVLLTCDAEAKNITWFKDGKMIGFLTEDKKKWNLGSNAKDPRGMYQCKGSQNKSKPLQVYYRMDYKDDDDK
- assay: SPR, vs unmutated H183/L072
What fold change of affinity was measured for each of the following?
Respond numerically; units are fold and should not be typed.

Tell me measured fold change of affinity for dBBDu183H V100cN/dBBDu072L (antibody, name in Kabat numbering, V domains shown) VH: QVQLVESGGGLVQPGRSLRLSCAASGFTFSNAWMHWVRQAPGKGLEWVAQIKDKGNAYAAYYAPSVKGRFTISRDDSKNSIYLQMNSLKTEDTAVYYCHYVHYASASTNLPAFGVDAWGQGTTVTVSS VL: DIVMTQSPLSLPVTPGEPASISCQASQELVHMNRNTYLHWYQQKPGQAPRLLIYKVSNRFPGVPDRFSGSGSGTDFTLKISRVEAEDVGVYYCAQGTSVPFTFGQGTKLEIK please. 1

Tell me measured fold change of affinity for dBBDu183H V100cW/dBBDu072L (antibody, name in Kabat numbering, V domains shown) VH: QVQLVESGGGLVQPGRSLRLSCAASGFTFSNAWMHWVRQAPGKGLEWVAQIKDKGNAYAAYYAPSVKGRFTISRDDSKNSIYLQMNSLKTEDTAVYYCHYVHYASASTWLPAFGVDAWGQGTTVTVSS VL: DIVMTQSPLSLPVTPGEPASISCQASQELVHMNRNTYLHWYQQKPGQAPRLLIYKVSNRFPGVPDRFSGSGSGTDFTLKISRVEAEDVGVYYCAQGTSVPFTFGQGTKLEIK please. 1.5

Tell me measured fold change of affinity for dBBDu183H S100aG/dBBDu072L (antibody, name in Kabat numbering, V domains shown) VH: QVQLVESGGGLVQPGRSLRLSCAASGFTFSNAWMHWVRQAPGKGLEWVAQIKDKGNAYAAYYAPSVKGRFTISRDDSKNSIYLQMNSLKTEDTAVYYCHYVHYASAGTVLPAFGVDAWGQGTTVTVSS VL: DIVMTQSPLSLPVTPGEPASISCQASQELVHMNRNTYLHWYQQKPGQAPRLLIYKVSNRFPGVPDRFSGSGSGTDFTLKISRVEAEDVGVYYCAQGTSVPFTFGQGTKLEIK please. 1.2

Tell me measured fold change of affinity for dBBDu183H P61S/dBBDu072L (antibody, name in Kabat numbering, V domains shown) VH: QVQLVESGGGLVQPGRSLRLSCAASGFTFSNAWMHWVRQAPGKGLEWVAQIKDKGNAYAAYYASSVKGRFTISRDDSKNSIYLQMNSLKTEDTAVYYCHYVHYASASTVLPAFGVDAWGQGTTVTVSS VL: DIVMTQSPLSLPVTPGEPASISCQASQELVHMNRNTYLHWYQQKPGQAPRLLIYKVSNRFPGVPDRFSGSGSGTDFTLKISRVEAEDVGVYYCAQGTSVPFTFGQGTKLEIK please. 1.3

Tell me measured fold change of affinity for dBBDu183H H96Y/dBBDu072L (antibody, name in Kabat numbering, V domains shown) VH: QVQLVESGGGLVQPGRSLRLSCAASGFTFSNAWMHWVRQAPGKGLEWVAQIKDKGNAYAAYYAPSVKGRFTISRDDSKNSIYLQMNSLKTEDTAVYYCHYVYYASASTVLPAFGVDAWGQGTTVTVSS VL: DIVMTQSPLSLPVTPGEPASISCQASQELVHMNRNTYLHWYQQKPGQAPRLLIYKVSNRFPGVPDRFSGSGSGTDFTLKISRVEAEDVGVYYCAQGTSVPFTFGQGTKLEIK please. 0
